Data origin: patent US12491170B2

Experiment: Stability in liver microsomes, human
Lab note: cut-off is 0.2 µM. Strictly less in Trep Concentration 20 min is condition met. Exactly 0.2 µM or more is condition not met.

Completed entries (count: 4):
compound: CCCCCC(CCC1C(O)CC2Cc3c(cccc3OCC(=O)O)CC21)OC(=O)C(C)N (stereo not shown)
qualitative.label: condition not met

compound: CCCCCC(CCC1C(O)CC2Cc3c(cccc3OCC(=O)O)CC21)OC(N)=O (stereo not shown)
qualitative.label: condition not met

compound: CCCCCC(CCC1C(O)CC2Cc3c(cccc3OCC(=O)O)CC21)Oc1ccccc1C(=O)O (stereo not shown)
qualitative.label: condition met

compound: CCCCCC(CCC1C(O)CC2Cc3c(cccc3OCC(=O)O)CC21)OCC (stereo not shown)
qualitative.label: condition met

Q: Hi there! Is Trep Concentration 20 min for CCCCCC(CCC1C(O)CC2Cc3c(cccc3OCC(=O)O)CC21)OC(=O)c1ccccc1O (stereo not shown) below 0.2 µM, do you know?
Result: condition met

Q: And then CCCCCC(CCC1C(O)CC2Cc3c(cccc3OCC(=O)O)CC21)OC(=O)COc1ccccc1 (stereo not shown) , what is it?
Result: condition not met

Q: And then CCCCCC(CCC1C(O)CC2Cc3c(cccc3OCC(=O)O)CC21)OC(=O)c1cccc(O)c1 (stereo not shown) , what is it?
Result: condition met

Q: And then CCCCCC(CCC1C(O)CC2Cc3c(cccc3OCC(=O)O)CC21)OC(=O)COc1ccc(OC(F)(F)F)cc1 (stereo not shown) , what is it?
Result: condition not met

Q: And then CCCCCC1CCC2C(CC3Cc4c(cccc4OCC(=O)O)CC32)OP(=O)(Oc2ccccc2)O1 (mixture of isomers) , what is it?
Result: condition met

Q: And then CCCCCC(CCC1C(O)CC2Cc3c(cccc3OCC(=O)O)CC21)OC(=O)C(N)CCCCN (stereo not shown) , what is it?
Result: condition met

Q: And then CCCCCC(CCC1C(O)CC2Cc3c(cccc3OCC(=O)O)CC21)OC(=O)CCN (stereo not shown) , what is it?
Result: condition met

Q: And then CCCCCC(CCC1C(O)CC2Cc3c(cccc3OCC(=O)O)CC21)OC(=O)CCC(=O)O (stereo not shown) , what is it?
Result: condition met

Q: And then CCCCCC(CCC1C(O)CC2Cc3c(cccc3OCC(=O)O)CC21)OC(=O)c1ccc(O)cc1 (stereo not shown) , what is it?
Result: condition not met

Q: And then CCCCCC(CCC1C(O)CC2Cc3c(cccc3OCC(=O)O)CC21)OC(=O)CC (stereo not shown) , what is it?
Result: condition not met

###

Measured Treprostinil Concentration 120 min, listed per entry.
Test: Stability in cryopreserved hepatocytes, human
Provide the reading as a plain figure in µM.

compound: CCCCCC(CCC1C(O)CC2Cc3c(cccc3OCC(=O)O)CC21)OC(=O)CC (stereo not shown) [Prodrug LV]
Treprostinil Concentration 120 min [µM]: 0.527

Q: What value of Treprostinil Concentration 120 min has been recorded for this entry: CCCCCC(CCC1C(O)CC2Cc3c(cccc3OCC(=O)O)CC21)OP(=O)(O)O (stereo not shown) [Prodrug VI]
Result: 0.540

Q: And then CCCCCC(CCC1C(O)CC2Cc3c(cccc3OCC(=O)O)CC21)OC(C)=O (stereo not shown) [Prodrug XLIII] , what is it?
Result: 0.507

Q: And then CCCCCC(CCC1C(OC(=O)CC)CC2Cc3c(cccc3OCC(=O)O)CC21)OC(=O)CC (stereo not shown) [Prodrug LXX, treprostinil dipropionate] , what is it?
Result: 0.413

###

Measured Treprostinil Concentration 15 min, listed per entry.
Experiment: Stability in cryopreserved hepatocytes, dog
Provide the reading as a plain figure in µM.

Consider the worked cases shown below.
compound: CCCCCC(CCC1C(O)CC2Cc3c(cccc3OCC(=O)O)CC21)OP(=O)(O)O (stereo not shown) [Prodrug VI]
units.label: µM
assay.value: 0.581
//
compound: CCCCCC(CCC1C(OC(=O)CC)CC2Cc3c(cccc3OCC(=O)O)CC21)OC(=O)CC (stereo not shown) [Prodrug LXX, treprostinil dipropionate]
units.label: µM
assay.value: 0.736

Q: What value of Treprostinil Concentration 15 min has been recorded for this entry: CCCCCC(CCC1C(O)CC2Cc3c(cccc3OCC(=O)O)CC21)OC(=O)CC (stereo not shown) [Prodrug LV]
Result: 0.781

Q: And then CCCCCC(CCC1C(O)CC2Cc3c(cccc3OCC(=O)O)CC21)OC(C)=O (stereo not shown) [Prodrug XLIII] , what is it?
Result: 0.628

###

Experiment: Stability in liver microsomes, human
Measured Trep Concentration 30 min, listed per entry.
Provide the reading as a plain figure in µM.

compound: CCCCCC(CCC1C(O)CC2Cc3c(cccc3OCC(=O)O)CC21)OC(=O)CCC(=O)O (centres unmarked)
Trep Concentration 30 min [µM]: 0.1

Q: What value of Trep Concentration 30 min has been recorded for this entry: CCCCCC1CCC2C(CC3Cc4c(cccc4OCC(=O)O)CC32)OP(=O)(Oc2ccccc2)O1 (mixture of isomers)
Result: 0

Q: And then CCCCCC(CCC1C(O)CC2Cc3c(cccc3OCC(=O)O)CC21)OC(C)=O (centres unmarked) , what is it?
Result: 0.513

Q: And then CCCCCC(CCC1C(O)CC2Cc3c(cccc3OCC(=O)O)CC21)OCC (centres unmarked) , what is it?
Result: 0.0816

Q: And then CCCCCC(CCC1C(OC(=O)CC)CC2Cc3c(cccc3OCC(=O)O)CC21)OC(=O)CC (centres unmarked) [Prodrug LXX, treprostinil dipropionate] , what is it?
Result: 0.538

Q: And then CCCCCC(CCC1C(O)CC2Cc3c(cccc3OCC(=O)O)CC21)OCC(=O)O (centres unmarked) , what is it?
Result: 0

Q: And then CCCCCC(CCC1C(O)CC2Cc3c(cccc3OCC(=O)O)CC21)OC(=O)OC(C)C (centres unmarked) , what is it?
Result: 0.39

Q: And then CCCCCC(CCC1C(O)CC2Cc3c(cccc3OCC(=O)O)CC21)OC(=O)C(C)C (centres unmarked) , what is it?
Result: 0.664

###

Experiment: Stability in human subcutaneous skin homogenate
Measured Treprostinil Concentration 0 min, listed per entry.
Provide the reading as a plain figure in µM.

Consider the worked cases shown below.
compound: CCCCCC(CCC1C(O)CC2Cc3c(cccc3OCC(=O)O)CC21)OC(=O)CC (stereo not shown) [Prodrug LV]
units.label: µM
Treprostinil Concentration 0 min: 0.0045

compound: CCCCCC(CCC1C(O)CC2Cc3c(cccc3OCC(=O)O)CC21)OC(C)=O (stereo not shown) [Prodrug XLIII]
units.label: µM
Treprostinil Concentration 0 min: 0.0034

compound: CCCCCC(CCC1C(OC(=O)CC)CC2Cc3c(cccc3OCC(=O)O)CC21)OC(=O)CC (stereo not shown) [Prodrug LXX, treprostinil dipropionate]
units.label: µM
Treprostinil Concentration 0 min: 0

Consider the additional compound presented here.
Q: What value of Treprostinil Concentration 0 min has been recorded for this entry: CCCCCC(CCC1C(O)CC2Cc3c(cccc3OCC(=O)O)CC21)OP(=O)(O)O (stereo not shown) [Prodrug VI]
Result: 0

###

Settings: rat
Entry class follows AUC: low range = under 2 µmol·min/L, mid range = from 2 µmol·min/L up to 20 µmol·min/L, high range = 20 µmol·min/L and over

Completed entries (count: 10):
compound: CCCCCC(CCC1C(O)CC2Cc3c(cccc3OCC(=O)O)CC21)OC(=O)C12CC3CC(CC(C3)C1)C2 (stereo not drawn) [LXIX]
qualitative.label: mid range

compound: CCCCCC(CCC1C(O)CC2Cc3c(cccc3OCC(=O)O)CC21)OC(=O)N1CCCCC1 (stereo not drawn) [XIX]
qualitative.label: low range

compound: CCCCCC(CCC1C(O)CC2Cc3c(cccc3OCC(=O)O)CC21)OC(=O)OC(C)C (stereo not drawn) [XVII]
qualitative.label: high range

compound: CCCCCC(CCC1C(O)CC2Cc3c(cccc3OCC(=O)O)CC21)OCOC(=O)C(C)(C)C (stereo not drawn) [LII]
qualitative.label: high range

compound: CCCCCC(CCC1C(O)CC2Cc3c(cccc3OCC(=O)O)CC21)OC(=O)c1ccc(C(F)(F)F)cc1 (stereo not drawn) [LXII]
qualitative.label: mid range

compound: CCCCCC(CCC1C(O)CC2Cc3c(cccc3OCC(=O)O)CC21)OC(=O)c1cccc(O)c1 (stereo not drawn) [LX]
qualitative.label: mid range

compound: CCCCCC(CCC1C(OC(=O)CC)CC2Cc3c(cccc3OCC(=O)O)CC21)OC(=O)CC (stereo not drawn) [Prodrug LXX, treprostinil dipropionate]
qualitative.label: high range

compound: CCCCC[C@@H](CC[C@@H]1[C@H]2Cc3cccc(OCC(=O)O)c3C[C@H]2C[C@H]1O)OC(=O)[C@@H](N)C(C)C [XXIX]
qualitative.label: low range

compound: CCCCCC(CCC1C(O)CC2Cc3c(cccc3OCC(=O)O)CC21)OC(=O)c1ccc(OC(F)(F)F)cc1 (stereo not drawn) [LXIII]
qualitative.label: mid range

compound: CCCCCC(O)CCC1C(OC)CC2Cc3c(cccc3OCC(=O)O)CC21 (stereo not drawn) [LIII]
qualitative.label: low range

Q: Determine which band this compound sits in: CCCCCC(CCC1C(OC(=O)OC)CC2Cc3c(cccc3OCC(=O)O)CC21)OC(=O)OC (stereo not drawn) [Prodrug LXXI, treprostinil dicarbonate]
Result: high range

Q: And then CCCCCC(CCC1C(O)CC2Cc3c(cccc3OCC(=O)O)CC21)OP(=O)(O)O (stereo not drawn) [VI] , what is it?
Result: high range

Q: And then CCCCCC(CCC1C(O)CC2Cc3c(cccc3OCC(=O)O)CC21)OC(=O)c1ccc(O)c(O)c1 (stereo not drawn) [LXVI] , what is it?
Result: low range

Q: And then CCCCCC(CCC1C(O)CC2Cc3c(cccc3OCC(=O)O)CC21)OC(=O)CC (stereo not drawn) [LV] , what is it?
Result: high range

Q: And then CCCCC[C@H]1CC[C@@H]2[C@H]3Cc4cccc(OCC(=O)O)c4C[C@H]3C[C@H]2OC(=O)O1 [XXIV] , what is it?
Result: high range

Q: And then CCCCCC(CCC1C(O)CC2Cc3c(cccc3OCC(=O)O)CC21)OC(C)=O (stereo not drawn) [XLIII] , what is it?
Result: mid range

Q: And then CCCCCC(CCC1C(O)CC2Cc3c(cccc3OCC(=O)O)CC21)OC(=O)COc1ccc(OC(F)(F)F)cc1 (stereo not drawn) [LXIV] , what is it?
Result: high range

Q: And then CCCCCC(CCC1C(O)CC2Cc3c(cccc3OCC(=O)O)CC21)Oc1ccccc1C(=O)O (stereo not drawn) [LVI] , what is it?
Result: low range
